Molecular target: RXRα:RAR heterodimer (Homo sapiens, UniProt P19793)
Construct: expressed in transfected cells; host or cells: CV-1 cells
Sequence (P19793 1-462): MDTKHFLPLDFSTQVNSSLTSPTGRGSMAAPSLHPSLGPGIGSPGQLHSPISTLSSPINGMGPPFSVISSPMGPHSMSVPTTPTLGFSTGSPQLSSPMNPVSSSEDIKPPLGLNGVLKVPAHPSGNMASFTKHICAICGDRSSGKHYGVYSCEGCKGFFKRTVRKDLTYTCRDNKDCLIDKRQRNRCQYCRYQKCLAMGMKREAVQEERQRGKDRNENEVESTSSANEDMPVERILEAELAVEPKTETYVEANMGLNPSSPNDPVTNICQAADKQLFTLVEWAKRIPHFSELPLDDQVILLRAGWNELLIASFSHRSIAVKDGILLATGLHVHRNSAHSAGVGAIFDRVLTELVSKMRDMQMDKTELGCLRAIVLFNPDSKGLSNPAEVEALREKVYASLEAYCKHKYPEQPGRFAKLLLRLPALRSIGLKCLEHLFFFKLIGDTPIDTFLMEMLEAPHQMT
Assay: RXR:RAR heterodimer co-transfection assay in CV-1 cells
Assay type: cell-based
Details: CV-1, read-out: RXRα:RAR Heterodimer Cotransfection Assay Agonist Efficacy (%)
Item-by-item account of Emax
Your answer should be a plain number; it is taken to be in %.

COc1c(/C(C)=C/C=C/C(C)=C/C(=O)O)cc(C(C)(C)C)cc1C(C)(C)C    21

Input line: Could you share what Emax was measured for "CCCOc1c(/C(C)=C/C=C/C(C)=C/C(=O)O)cc(C(C)(C)C)cc1C(C)(C)C" , tested on RXRα:RAR heterodimer (Homo sapiens, UniProt P19793)?
Output line: 5

Input line: Query the reported Emax for RXRα:RAR heterodimer (Homo sapiens, UniProt P19793); item: "CCCCOc1c(/C(C)=C/C=C/C(C)=C/C(=O)O)cc(C(C)(C)C)cc1C(C)(C)C"
Output line: 2

Input line: # query: Emax | item C/C(=C\c1ccc(C(=O)O)cc1)c1ccc2c(c1)C(C)(C)CCC2(C)C [TTNPB, reference compound] | system: RXRα:RAR heterodimer (Homo sapiens, UniProt P19793)
Output line: 115

Input line: State its Emax on RXRα:RAR heterodimer (Homo sapiens, UniProt P19793): "CCOc1c(/C(C)=C/C=C/C(C)=C/C(=O)O)cc(C(C)(C)C)cc1C(C)(C)C"
Output line: 6

====

Collected pEC50 values appear next to each entry.
Molecular target: RXRα homodimer (RXR:RXR) (Homo sapiens)
Assay: RXR homodimer co-transfection assay in CV-1 cells
Conditions: not calculated if efficacy <10%; read-out: RXRα Homodimer Cotransfection Assay Agonist EC50
To interpret pEC50, take it as minus log10 of a concentration measured in moles per litre.

COc1c(/C(C)=C/C=C/C(C)=C/C(=O)O)cc(C(C)(C)C)cc1C(C)(C)C    7.48

Pending compound:
Input line: Reported pEC50 for "CCOc1c(/C(C)=C/C=C/C(C)=C/C(=O)O)cc(C(C)(C)C)cc1C(C)(C)C" : what is it?
Output line: 7.85

====

Target: RXRα:PPARγ heterodimer (Homo sapiens)
Construct: expressed in transfected cells; host or cells: CV-1 cells
Experiment: RXR:PPARγ heterodimer co-transfection assay in CV-1 cells
Format: cell-based
Details: maximal response in presence of 100 nM BRL relative to response of BRL alone
Entries and their RXRα:PPARγ Heterodimer Cotransfection Assay Synerg Efficacy (%) values follow.
Provide the reading as a plain figure in %.

Examples from the recorded data:
CCOc1c(/C(C)=C/C=C/C(C)=C/C(=O)O)cc(C(C)(C)C)cc1C(C)(C)C [Compound L2]    69
CCCCOc1c(/C(C)=C/C=C/C(C)=C/C(=O)O)cc(C(C)(C)C)cc1C(C)(C)C [Compound L4]    20
CCCOc1c(/C(C)=C/C=C/C(C)=C/C(=O)O)cc(C(C)(C)C)cc1C(C)(C)C [Compound L3]    25

Input line: Query: RXRα:PPARγ Heterodimer Cotransfection Assay Synerg Efficacy (%); subject: CCCCCCCOc1c(/C(C)=C/C=C/C(C)=C/C(=O)O)cc(C(C)(C)C)cc1C(C)(C)C [Compound L5]
Output line: 6

Input line: Tell me the measured RXRα:PPARγ Heterodimer Cotransfection Assay Synerg Efficacy (%) of COc1c(/C(C)=C/C=C/C(C)=C/C(=O)O)cc(C(C)(C)C)cc1C(C)(C)C [Compound L1] , please.
Output line: 166

====

Biological target: RXRα:PPARγ heterodimer (Homo sapiens)
Construct: expressed in transfected cells; host or cells: CV-1 cells
Assay: RXR:PPARγ heterodimer co-transfection assay in CV-1 cells
Assay type: cell-based
Settings: alone
quantity-name: activity on the RXRα:PPARγ heterodimer, tested alone

CCCCOc1c(/C(C)=C/C=C/C(C)=C/C(=O)O)cc(C(C)(C)C)cc1C(C)(C)C    only weakly active alone
CCCOc1c(/C(C)=C/C=C/C(C)=C/C(=O)O)cc(C(C)(C)C)cc1C(C)(C)C    only weakly active alone

====

Test system: db/db mouse
Assay: db/db mouse study (rodent model of Type II diabetes)
Settings: plasma triglycerides as % of control values, day 3, 30 mg/kg/day
Entries and their db/db mouse Trigs. (D3)
Reply with just the number (in %).

Consider the following illustrative entries.
CC(/C=C/C1=C(c2cc(C(C)C)cc(C(C)C)c2OCCCF)CCC1)=C\C(=O)O [Compound L14]    138
CCC(C)(C)c1cc(\C(C)=C/C=C/C(C)=C/C(=O)O)c(OCC(F)F)c(C(C)(C)CC)c1 [Compound L18]    134
CCc1cc(-c2ccsc2/C=C/C(C)=C/C(=O)O)c(OCCCF)c(C2CCCC2)c1 [Compound L17]    75

Input line: May I ask what db/db mouse Trigs. (D3) has been recorded for C/C(=C/C=C/C(C)=C/C(=O)O)c1cc(C(C)(C)C)cc(C(C)(C)C)c1OCC(F)F [Compound L13] ?
Output line: 109

====

Entries and their measured IC50 follow.
Biological target: RXRα homodimer (RXR:RXR) (Homo sapiens)
Assay: RXR homodimer co-transfection assay in CV-1 cells
Conditions: in presence of LGD1069; not calculated if efficacy <10%; read-out: RXRα Homodimer Cotransfection Assay Antagonist IC50
Report only the number, with the unit nM understood.

CCCCOc1c(/C(C)=C/C=C/C(C)=C/C(=O)O)cc(C(C)(C)C)cc1C(C)(C)C    9

Input line: Quick one: IC50 for "CCOc1c(/C(C)=C/C=C/C(C)=C/C(=O)O)cc(C(C)(C)C)cc1C(C)(C)C" ?
Output line: 9

Input line: Entry "CCCOc1c(/C(C)=C/C=C/C(C)=C/C(=O)O)cc(C(C)(C)C)cc1C(C)(C)C" has what IC50?
Output line: 5

Input line: What does the data say about its IC50? Entry: "CCCCCCCOc1c(/C(C)=C/C=C/C(C)=C/C(=O)O)cc(C(C)(C)C)cc1C(C)(C)C"
Output line: 10

====

Molecular target: RXRα:PPARγ heterodimer (Homo sapiens)
Construct: expressed in transfected cells; host or cells: CV-1 cells
Experiment: RXR:PPARγ heterodimer co-transfection assay in CV-1 cells
Assay type: cell-based
Conditions: maximal response in presence of 100 nM BRL49653 relative to BRL49653 alone
Use 70% as the dividing line for PPARγ CV-1 (%) Synergy, with the line itself on the Fulfilled side and lower values as Not fulfilled.

Example entries and their recorded answers appear below.
CCCCOc1c(/C(C)=C/C=C/C(C)=C/C(=O)O)cc(C(C)(C)C)cc1C(C)(C)C    Not fulfilled
COc1c(/C(C)=C/C=C/C(C)=C/C(=O)O)cc(C(C)(C)C)cc1C(C)(C)C    Fulfilled
CCCOc1c(/C(C)=C/C=C/C(C)=C/C(=O)O)cc(C(C)(C)C)cc1C(C)(C)C    Not fulfilled

Input line: Dear colleague, could you confirm whether "CCCCCCCOc1c(/C(C)=C/C=C/C(C)=C/C(=O)O)cc(C(C)(C)C)cc1C(C)(C)C" has PPARγ CV-1 (%) Synergy at or above 70%?
Output line: Not fulfilled

====

Molecular target: RXRα (Homo sapiens)
Sequence (P19793 1-462): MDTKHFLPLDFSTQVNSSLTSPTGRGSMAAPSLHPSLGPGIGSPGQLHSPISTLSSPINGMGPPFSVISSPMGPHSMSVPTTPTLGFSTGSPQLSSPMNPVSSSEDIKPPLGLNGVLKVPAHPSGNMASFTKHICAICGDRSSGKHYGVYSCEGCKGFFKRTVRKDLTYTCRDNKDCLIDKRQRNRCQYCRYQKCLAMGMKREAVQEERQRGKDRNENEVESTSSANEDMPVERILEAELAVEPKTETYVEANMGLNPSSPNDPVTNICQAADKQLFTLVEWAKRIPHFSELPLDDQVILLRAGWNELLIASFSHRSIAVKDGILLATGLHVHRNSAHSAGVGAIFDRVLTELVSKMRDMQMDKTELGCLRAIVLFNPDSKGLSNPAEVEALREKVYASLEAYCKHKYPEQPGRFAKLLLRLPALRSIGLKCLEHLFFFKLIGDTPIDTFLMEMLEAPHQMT
Test: RXRα binding (competition with tritiated LGD1069)
Details: Table 2; from IC50 by Cheng-Prussof equation, tritiated LGD1069; read-out: Bind RXRα Ki
quantity-name: pKi
Give only the number. pKi is defined as minus log10 of concentration in molar units.

CCC(C)(C)c1cc(\C(C)=C/C=C/C(C)=C/C(=O)O)c(OCC(F)F)c(C(C)(C)CC)c1 [Compound L18]    7.54
C/C(=C/C=C/C(C)=C/C(=O)O)c1cc(-c2ccccc2F)cc(C(C)C)c1OCC(F)F [Compound L19]    9.00
C/C(=C/C=C/C(C)=C/C(=O)O)c1cc(C(C)(C)C)cc(C(C)(C)C)c1OCC(F)(F)F [Compound L23]    7.57
CC(/C=C/C1=C(c2cc(C(C)C)cc(C(C)C)c2OCCCF)CCC1)=C\C(=O)O [Compound L14]    8.30

Please find the next compound below.
Input line: Entry CCOc1c(\C(C)=C/C=C/C(C)=C/C(=O)O)cc(C(F)(F)C(F)(F)F)cc1C(C)C [Compound L15] : reported pKi = ?
Output line: 8.22
